target: Lon protease (Escherichia coli (strain K12)); assay: inhibition of eLon from E. coli – biochemical, fluorescence polarization, confirmation (AID 602230);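 further: 0% = enzyme with probe and DMSO and 100% = no enzyme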; settings: purified E. coli Lon, at 7.94 µM, active compounds read high
The whole screen tested about 1,400 compounds, of which about 450 (32%) were called active. These entries were drawn from the full list.
REPORTED_METRIC: inhibition (%)
Numbers only, in %.

Need inhibition for each of these compounds.
1. Cc1ccc2nc3c(cc(C(=O)NCCc4ccccc4)c(=N)n3CC3CCCO3)c(=O)n2c1 (stereo not drawn)
2. CCCn1c(SCC(=O)Nc2c(C)cccc2C)nnc1C(C)C
3. COc1ccc(OC)c(NC(=O)Cc2cccs2)c1
4. Oc1ccc(N=Cc2sc3ccccc3c2Cl)cc1
5. COc1ccc(CC(=O)Nc2ccc(-c3nnc(-c4ccccc4)o3)cc2)cc1

Reply text:
3.71
-13.9
-9.37
-21.5
-10.3

Need inhibition for each of these compounds.
1. CC/C(C)=N/Nc1nc2sc3c(c2c(=O)[nH]1)CC(C)(C)OC3
2. COc1ccc(C(=O)NCc2nnc(SCCOc3ccccc3)n2C)cc1
3. NC(=O)c1ccc(NC(=O)COC(=O)c2c3c(nc4ccccc24)/C(=C\c2ccc4c(c2)OCO4)CCC3)cc1

Reply text:
1: 15.3; 2: -3.94; 3: -8.01

====

Consider the following compounds; for each one, report its inhibition.
target: Lon protease (Escherichia coli (strain K12)) (UniProt P0A9M0); assay: inhibition of eLon from E. coli – biochemical, fluorescence polarization, confirmation (AID 602230);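 further: 0% = enzyme with probe and DMSO and 100% = no enzyme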; conditions: purified E. coli Lon, at 7.94 µM, active compounds read high
Sequence (P0A9M0 whole entry, looked up): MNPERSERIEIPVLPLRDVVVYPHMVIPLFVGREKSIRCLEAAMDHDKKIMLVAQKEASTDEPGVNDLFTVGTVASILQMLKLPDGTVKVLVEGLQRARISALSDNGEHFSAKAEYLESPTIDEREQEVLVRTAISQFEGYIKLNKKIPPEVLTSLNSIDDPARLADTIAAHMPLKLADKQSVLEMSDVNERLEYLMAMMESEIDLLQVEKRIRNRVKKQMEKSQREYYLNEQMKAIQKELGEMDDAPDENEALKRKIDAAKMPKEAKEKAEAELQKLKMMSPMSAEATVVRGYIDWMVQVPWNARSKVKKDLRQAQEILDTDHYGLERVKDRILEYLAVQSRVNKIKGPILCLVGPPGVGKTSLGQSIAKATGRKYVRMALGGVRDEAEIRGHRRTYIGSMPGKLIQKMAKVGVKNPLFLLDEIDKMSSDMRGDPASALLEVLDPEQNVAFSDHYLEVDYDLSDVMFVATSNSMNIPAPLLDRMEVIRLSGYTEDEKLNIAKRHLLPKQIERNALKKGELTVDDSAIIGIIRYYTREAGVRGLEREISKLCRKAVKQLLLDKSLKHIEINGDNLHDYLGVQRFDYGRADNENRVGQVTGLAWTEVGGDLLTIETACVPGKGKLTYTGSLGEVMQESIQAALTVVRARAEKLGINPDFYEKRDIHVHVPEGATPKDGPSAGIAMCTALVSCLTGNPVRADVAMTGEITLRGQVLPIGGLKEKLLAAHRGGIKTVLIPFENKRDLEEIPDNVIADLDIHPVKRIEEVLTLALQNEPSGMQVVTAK
The campaign covered roughly 1,400 compounds. About 450 (32%) were called active. The list is a sample of the results.
One number for each entry, in %.

COMPOUND	ASSAY_SYSTEM	REPORTED_METRIC	READOUT_VALUE
COc1ccc2[nH]c(C)c(CCN(Cc3cccs3)C(=S)Nc3ccccc3OC)c2c1	Lon protease (Escherichia coli (strain K12)) (UniProt P0A9M0)	inhibition	3.35
COCCn1c(N)c(NCc2ccccc2)c(=O)[nH]c1=O	Lon protease (Escherichia coli (strain K12)) (UniProt P0A9M0)	inhibition	7.51
c1ccc(C(=NNc2nc3ccccc3s2)c2ccccn2)cc1	Lon protease (Escherichia coli (strain K12)) (UniProt P0A9M0)	inhibition	134

Need inhibition for each of these compounds.
1. CC(C(=O)NC1CCCC1)N1CCN(S(=O)(=O)c2ccccc2Cl)CC1 (stereo unspecified)
2. Cc1coc2c(O)cc3c(c12)OC1(N2CCCCC2)C(=O)NCCCC31 (stereo unspecified)
3. COc1ccc(C2=CC(c3cccc(OC)c3)n3nnnc3N2)cc1 (stereo unspecified)

Reply text:
1: -0.03; 2: 6.1; 3: 17

====

target: Lon protease (Escherichia coli (strain K12)) (UniProt P0A9M0); assay: inhibition of eLon from E. coli – biochemical, fluorescence polarization, confirmation (AID 602230);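 further: 0% = enzyme with probe and DMSO and 100% = no enzyme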; details: purified E. coli Lon, at 7.94 µM, active compounds read high
Out of some 1,400 compounds screened, about 450 (32%) were called active. Only a sample is shown.
REPORTED_METRIC: inhibition (%)
One number for each entry, in %.

COMPOUND	READOUT_VALUE
CN(C)Cc1c(C(=O)N/N=C/c2ccccc2OCc2ccc(F)cc2)nnn1-c1nonc1N	4.47
CCN(CC)CCCNC(=O)c1cn(C)c2ccc(S(=O)(=O)N(C)C3CCCCC3)cc2c1=O	-0.99
CC1=NN(C(=O)CCc2ccccc2O)C(O)(C(F)(F)F)C1 (stereo unspecified)	9.05
O=C(COC(=O)C12CC3CC(CC(O)(C3)C1)C2)NC12CC3CC(CC(C3)C1)C2	-2.17
Nc1ccccc1/C=N\N=C/c1ccccc1N	8.46

Then there is this compound:
Inquiry: Could you share which inhibition value was measured for "O=C1C=C(NCCNc2c(F)c(F)c(CO)c(F)c2F)CCC1" ?
Reply text: -15.4

Provenance of the data: PubChem BioAssay AID602230
